Where these numbers come from: patent US20250011351A1

Target Entity: 5-HT2A receptors (Mus musculus, UniProt P35363)
Construct: from tissue; host or cells: whole living C57BL/6J mice (in vivo behavioural assay)
Sequence (P35363 whole entry): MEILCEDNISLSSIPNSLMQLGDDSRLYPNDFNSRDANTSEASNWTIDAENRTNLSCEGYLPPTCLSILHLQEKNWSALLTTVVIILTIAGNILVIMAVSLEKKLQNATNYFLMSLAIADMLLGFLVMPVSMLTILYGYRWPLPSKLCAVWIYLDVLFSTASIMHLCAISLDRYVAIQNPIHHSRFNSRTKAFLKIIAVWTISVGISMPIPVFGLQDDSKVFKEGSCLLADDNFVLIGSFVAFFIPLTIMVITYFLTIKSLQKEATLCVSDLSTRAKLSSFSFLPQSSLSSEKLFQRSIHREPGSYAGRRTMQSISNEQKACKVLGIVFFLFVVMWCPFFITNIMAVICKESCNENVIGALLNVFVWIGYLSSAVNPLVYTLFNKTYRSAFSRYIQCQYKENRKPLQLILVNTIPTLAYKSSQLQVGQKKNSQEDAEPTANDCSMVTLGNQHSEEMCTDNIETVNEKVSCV
Method: Psilocybin-induced head-twitch response in mice, antagonist given i.v. 7 min after psilocybin
Assay type: in vivo, C57BL/6J mice
Applied Conditions: antagonist administered after psilocybin, compared to vehicle-treated mice; dose not restated
Readout Kind: effect on psilocybin-induced head twitch, summary of Examples 13-21

> print(dat)
                                   compound  reported.measurement
1  O=c1[nH]c2ccccc2n1CCN1CCN(c2cccc(C(F)(F)F)c2)CC1 [flibanserin]   partial suppression
2  N#Cc1c[nH]c2c(C(=O)N3CCN(CCc4ccc(F)cc4)CC3)cccc12 [pruvanserin]           full ending
3  Cc1nc2sccn2c(=O)c1CCN1CCC(=C(c2ccc(F)cc2)c2ccc(F)cc2)CC1 [ritanserin]           full ending
4  COc1cccc([C@H](O)C2CCN(CCc3ccc(F)cc3)CC2)c1OC [volinanserin]           full ending
5  COc1ccc(NC(=O)Nc2ccc(F)cc2F)cc1-c1c(Br)cnn1C [nelotanserin]   partial suppression
